# Test system: S. aureus erm A genotype
# run description: CLSI broth dilution MIC determination
# Format: cell-based
# experimental parameters: S. aureus erm A genotype; Gram-positive
Catalogue of MIC values

molecule: CC[C@H]1OC(=O)[C@H](C)C(=O)[C@H](C)[C@@H](O[C@@H]2OC(C)CC(N(C)C)C2O)[C@](C)(OC)C[C@@H](C)C(=O)[C@H](C)[C@H]2N(CC3CC3Cn3cc(-c4cccc(N)c4)nn3)C(=O)O[C@]12C (single isomer, unassigned) [FSM-100428]
MIC: > 32 µg/mL

Return reported MIC for target or system S. aureus erm A genotype, item CC[C@H]1OC(=O)[C@H](C)C(=O)[C@H](C)[C@@H](O[C@@H]2OC(C)CC(N(C)C)C2O)[C@](C)(OC)C[C@@H](C)C(=O)[C@H](C)[C@H]2N(CC#CCn3cc(-c4cccc(N)c4)nn3)C(=O)O[C@]12C (stereo partly shown) .
> 32 µg/mL

Please report the measured MIC for CC[C@H]1OC(=O)[C@H](C)C(=O)[C@H](C)[C@@H](O[C@@H]2OC(C)CC(N(C)C)C2O)[C@](C)(OC)C[C@@H](C)C(=O)[C@H](C)[C@H]2N(CC3CC3Cn3cc(-c4cccc(N)c4)nn3)C(=O)O[C@]12C (single isomer, unassigned) [FSM-100434] tested on S. aureus erm A genotype.
> 32 µg/mL

Specify MIC for CC[C@H]1OC(=O)[C@@](C)(F)C(=O)[C@H](C)[C@@H](O[C@@H]2OC(C)CC(N(C)C)C2O)[C@](C)(OC)C[C@@H](C)C(=O)[C@H](C)[C@H]2N(C/C=C/Cn3cc(-c4ccccn4)nn3)C(=O)O[C@]12C (stereo partly shown) , system S. aureus erm A genotype.
> 32 µg/mL

---

# System: S. aureus MP-17 ATCCBAA-977 (BAA 977 iErm)
# run description: CLSI broth dilution MIC determination
# Format: cell-based
# experimental parameters: Staphylococcus aureus; S. aureus MP-17, ATCCBAA-977, iErm; read-out: MIC
property name: MIC (mg/L)
Record the value in mg/L, omitting the unit from your answer.

compound: CC[C@H]1OC(=O)[C@@](C)(F)C(=O)[C@H](C)[C@@H](O[C@@H]2OC(C)CC(N(C)C)C2O)[C@](C)(OC)C[C@@H](C)C(=O)[C@H](C)[C@H]2N(CC#CCn3cc(-c4cc(F)nc(F)n4)nn3)C(=O)O[C@]12C (some centres unmarked)
MIC (mg/L): 8

Find the measured MIC of CC[C@H]1OC(=O)[C@H](C)C(=O)[C@H](C)[C@@H](O[C@@H]2OC(C)CC(N(C)C)C2O)[C@](C)(OC)C[C@@H](C)C(=O)[C@H](C)[C@H]2N(NCCCn3nc4ccccc4n3)C(=O)O[C@]12C (some centres unmarked) and report it.
0.25

---

Measured MIC, listed per entry for reference.
# Test system: A. baumannii ATCC 19606
# run description: CLSI broth dilution MIC determination
# Assay type: cell-based
# experimental parameters: Acinetobacter baumannii, ATCC19606; A. baumannii ATCC 19606 (MP-15); read-out: MIC
Report as a plain number; the unit µg/mL is understood.

Solved cases below.
compound: CC[C@H]1OC(=O)[C@H](C)C(=O)[C@H](C)[C@@H](O[C@@H]2OC(C)CC(N(C)C)C2O)[C@](C)(OC)C[C@@H](C)C(=O)[C@H](C)[C@H]2N(CC#CCn3cc(-c4cc(F)ccn4)nn3)C(=O)O[C@]12C (some centres unmarked)
property name: MIC
result: 16

compound: CC[C@H]1OC(=O)[C@@](C)(F)C(=O)[C@H](C)[C@@H](O[C@@H]2OC(C)CC(N(C)C)C2O)[C@](C)(OC)C[C@@H](C)C(=O)[C@H](C)[C@H]2N(CC#CCn3cc(-c4cnc(N)s4)nn3)C(=O)O[C@]12C (some centres unmarked)
property name: MIC
result: 4

compound: CC[C@H]1OC(=O)[C@@](C)(F)C(=O)[C@H](C)[C@@H](O[C@@H]2OC(C)CC(N(C)C)C2O)[C@](C)(OC)C[C@@H](C)C(=O)[C@H](C)[C@H]2N(CC#CCn3cc(-c4cc(N)nc(N)n4)nn3)C(=O)O[C@]12C (some centres unmarked)
property name: MIC
result: 16

compound: CC[C@H]1OC(=O)[C@@](C)(F)C(=O)[C@H](C)[C@@H](O[C@@H]2OC(C)CC(N(C)C)C2O)[C@](C)(OC)C[C@@H](C)C(=O)[C@H](C)[C@H]2N(CC#CCn3cc(-c4cc(=O)cc[nH]4)nn3)C(=O)O[C@]12C (some centres unmarked)
property name: MIC
result: 64

Read off the recorded MIC for CC[C@H]1OC(=O)[C@@](C)(F)C(=O)[C@H](C)[C@@H](O[C@@H]2OC(C)CC(N(C)C)C2O)[C@](C)(OC)C[C@@H](C)C(=O)[C@H](C)[C@H]2N(CC#CCn3cc(-c4cccc(N)n4)nn3)C(=O)O[C@]12C (some centres unmarked)
2

Supply measured MIC of CC[C@H]1OC(=O)[C@H](C)C(=O)[C@H](C)[C@@H](O[C@@H]2OC(C)CC(N(C)C)C2O)[C@](C)(OC)C[C@@H](C)C(=O)[C@H](C)[C@H]2N(CC#CCn3cc(-c4cccc(N)n4)nn3)C(=O)O[C@]12C (some centres unmarked) in your reply.
4

Kindly indicate its recorded MIC. Item: CC[C@H]1OC(=O)[C@@](C)(F)C(=O)[C@H](C)[C@@H](O[C@@H]2OC(C)CC(N(C)C)C2O)[C@](C)(OC)C[C@@H](C)C(=O)[C@H](C)[C@H]2N(CC#CCn3cc(-c4ncccn4)nn3)C(=O)O[C@]12C (some centres unmarked)
8

---

Reported MIC values follow for various compounds
# System: K. pneumoniae TEM-10
# run description: CLSI broth dilution MIC determination
# Format: cell-based
# experimental parameters: Gram-negative

compound: CC[C@H]1OC(=O)[C@H](C)C(=O)[C@H](C)[C@@H](O[C@@H]2OC(C)CC(N(C)C)C2O)[C@](C)(OC)C[C@@H](C)C(=O)[C@H](C)[C@H]2N(C/C=C\Cn3cc(-c4cccc(N)c4)nn3)C(=O)O[C@]12C (some centres unmarked)
result: > 32 µg/mL

Please find the next compound below.
Respond only with MIC recorded for CC[C@H]1OC(=O)[C@@](C)(F)C(=O)[C@H](C)[C@@H](OC2OC(C)CC(N(C)C)C2O)[C@](C)(OC)C[C@@H](C)C(=O)[C@H](C)[C@H]2N(CCCCn3cc(-c4cccc(N)c4)nn3)C(=O)O[C@]12C (some centres unmarked) [Solithro, solithromycin, reference compound]
> 32 µg/mL

---

# Tested on: S. aureus MRSA: USA100
# run description: CLSI broth dilution MIC determination
# Type: cell-based
# experimental parameters: Staphylococcus aureus; S. aureus MRSA: USA100 (MP-618 UNT-096); read-out: MIC
property name: MIC

molecule: CC[C@H]1OC(=O)[C@@H](C)C(=O)[C@H](C)[C@@H](O[C@@H]2OC(C)CC(N(C)C)C2O)[C@](C)(OC)C[C@@H](C)C(=O)[C@H](C)[C@H]2N(C/C=C/Cn3cc(-c4cccc(N)c4)nn3)C(=O)O[C@]12C (stereo partly drawn) [FSM-100432]
result: > 32 µg/mL
--
molecule: CC[C@H]1OC(=O)[C@@](C)(F)C(=O)[C@H](C)[C@@H](O[C@@H]2OC(C)CC(N(C)C)C2O)[C@](C)(OC)C[C@@H](C)C(=O)[C@H](C)[C@H]2N(CC#CCn3cc(-c4cc(F)ccn4)nn3)C(=O)O[C@]12C (stereo partly drawn) [FSM-100563]
result: 32 µg/mL

Proceeding to the next molecule to report its MIC.
Lab note: S. aureus MRSA: USA100 assay, enter MIC for CC[C@H]1OC(=O)[C@@](C)(F)C(=O)[C@H](C)[C@@H](OC2OC(C)CC(N(C)C)C2O)[C@](C)(OC)C[C@@H](C)C(=O)[C@H](C)[C@H]2N(CCCCn3cc(-c4cccc(N)c4)nn3)C(=O)O[C@]12C (stereo partly drawn) [Solithro, solithromycin, reference compound] here
> 32 µg/mL

---

# Test system: E. coli MP-9 ATCC25922:tolC
# run description: CLSI broth dilution MIC determination
# Format: cell-based
# experimental parameters: Escherichia coli, ATCC25922
# MIC values compiled below

Before answering, review these 3 worked examples.
compound: CC[C@H]1OC(=O)[C@@](C)(F)C(=O)[C@H](C)[C@@H](O[C@@H]2OC(C)CC(N(C)C)C2O)[C@](C)(OC)C[C@@H](C)C(=O)[C@H](C)[C@H]2N(CC#CCn3cc(-c4cc(N)nc(N)n4)nn3)C(=O)O[C@]12C (some centres unmarked) [FSM-22742]
MIC: 2 µg/mL
//
compound: CC[C@H]1OC(=O)[C@H](C)C(=O)[C@H](C)[C@@H](O[C@@H]2OC(C)CC(N(C)C)C2O)[C@](C)(OC)C[C@@H](C)C(=O)[C@H](C)[C@H]2N(CC#CCn3cc(-c4cccc(N)n4)nn3)C(=O)O[C@]12C (some centres unmarked) [FSM-100551]
MIC: 2 µg/mL
//
compound: CC[C@H]1OC(=O)[C@H](C)C(=O)[C@H](C)[C@@H](O[C@@H]2OC(C)CC(N(C)C)C2O)[C@](C)(OC)C[C@@H](C)C(=O)[C@H](C)[C@H]2N(NCCCn3nc4ccccc4n3)C(=O)O[C@]12C (some centres unmarked) [FSM-140132]
MIC: 2 µg/mL

Report value only: MIC, E. coli MP-9 ATCC25922:tolC, CC[C@H]1OC(=O)[C@@](C)(F)C(=O)[C@H](C)[C@@H](O[C@@H]2OC(C)CC(N(C)C)C2O)[C@](C)(OC)C[C@@H](C)C(=O)[C@H](C)[C@H]2N(CC#CCn3cc(-c4cccnn4)nn3)C(=O)O[C@]12C (some centres unmarked) [FSM-130217]
4 µg/mL
